System: HL-60(TB)
experimental protocol: Growth inhibition of human HL-60(TB) cells after 48 hrs by SRB assay
Format: functional
run parameters: HL-60, 48 h

compound	target or test system	GI50 (nM)
CN1CCN(CCCc2ccc(C(c3ccccc3)C34CC5CC(CC(C5)C3)C4)cc2)CC1 (configuration not stated)	HL-60(TB)	4.02
c1ccc(C(c2ccc(CN3CCCCC3)cc2)C23CC4CC(CC(C4)C2)C3)cc1 (configuration not stated)	HL-60(TB)	5.91
c1ccc(C(c2ccc(CCCN3CCNCC3)cc2)C23CC4CC(CC(C4)C2)C3)cc1 (configuration not stated)	HL-60(TB)	3.01
O=c1[nH]cc(F)c(=O)[nH]1	HL-60(TB)	100
CN1CCN(Cc2ccc(C(c3ccccc3)C34CC5CC(CC(C5)C3)C4)cc2)CC1 (configuration not stated)	HL-60(TB)	4.63
c1ccc(C(c2ccc(CN3CCNCC3)cc2)C23CC4CC(CC(C4)C2)C3)cc1 (configuration not stated)	HL-60(TB)	4.48
CCN1CCN(Cc2ccc(C(c3ccccc3)C34CC5CC(CC(C5)C3)C4)cc2)CC1 (configuration not stated)	HL-60(TB)	4.33

====

Test system: HCT-116
experimental protocol: Growth inhibition of human HCT116 cells after 48 hrs by SRB assay
Assay type: functional
run parameters: HCT-116, 48 h
Recorded TGI by entry

compound	target or test system	TGI, µM
CCN1CCN(CCCc2ccc(C(c3ccccc3)C34CC5CC(CC(C5)C3)C4)cc2)CC1 (stereo unspecified)	HCT-116	5.9
c1ccc(C(c2ccc(CCCN3CCCCC3)cc2)C23CC4CC(CC(C4)C2)C3)cc1 (stereo unspecified)	HCT-116	5.99
c1ccc(CN2CCN(CCCc3ccc(C(c4ccccc4)C45CC6CC(CC(C6)C4)C5)cc3)CC2)cc1 (stereo unspecified)	HCT-116	39.7
c1ccc(C(c2ccc(CCCN3CCNCC3)cc2)C23CC4CC(CC(C4)C2)C3)cc1 (stereo unspecified)	HCT-116	5.85
CN1CCN(CCCc2ccc(C(c3ccccc3)C34CC5CC(CC(C5)C3)C4)cc2)CC1 (stereo unspecified)	HCT-116	6.05
O=c1[nH]cc(F)c(=O)[nH]1 [FLUOROURACIL]	HCT-116	100

====

System: U-251
experimental protocol: Growth inhibition of human U251 cells after 48 hrs by SRB assay
Format: functional
run parameters: U-251, 48 h
Recorded TGI by entry
measurement kind: TGI

compound	val
c1ccc(C(c2ccc(CCCN3CCNCC3)cc2)C23CC4CC(CC(C4)C2)C3)cc1 (centres undefined)	5.87 µM
CCN1CCN(Cc2ccc(C(c3ccccc3)C34CC5CC(CC(C5)C3)C4)cc2)CC1 (centres undefined)	7.8 µM
CCN1CCN(CCCc2ccc(C(c3ccccc3)C34CC5CC(CC(C5)C3)C4)cc2)CC1 (centres undefined)	6.69 µM
c1ccc(C(c2ccc(CN3CCNCC3)cc2)C23CC4CC(CC(C4)C2)C3)cc1 (centres undefined)	5.92 µM

====

Test system: SK-HEP1
experimental protocol: Growth inhibition of human SKHEP1 cells after 48 hrs by SRB assay
Type: functional
run parameters: SK-HEP1, 48 h

compound	measurement unit	TGI
CCN1CCN(CCCc2ccc(C(c3ccccc3)C34CC5CC(CC(C5)C3)C4)cc2)CC1 (configuration not stated)	µM	6.01
c1ccc(C(c2ccc(CCCN3CCNCC3)cc2)C23CC4CC(CC(C4)C2)C3)cc1 (configuration not stated)	µM	6.19
CN1CCN(Cc2ccc(C(c3ccccc3)C34CC5CC(CC(C5)C3)C4)cc2)CC1 (configuration not stated)	µM	5.97
CCN1CCN(Cc2ccc(C(c3ccccc3)C34CC5CC(CC(C5)C3)C4)cc2)CC1 (configuration not stated)	µM	24.3
O=c1[nH]cc(F)c(=O)[nH]1 [FLUOROURACIL]	µM	100
c1ccc(C(c2ccc(CCCN3CCCCC3)cc2)C23CC4CC(CC(C4)C2)C3)cc1 (configuration not stated)	µM	5.97
c1ccc(C(c2ccc(CN3CCCCC3)cc2)C23CC4CC(CC(C4)C2)C3)cc1 (configuration not stated)	µM	38.4
c1ccc(C(c2ccc(CN3CCNCC3)cc2)C23CC4CC(CC(C4)C2)C3)cc1 (configuration not stated)	µM	6.17
c1ccc(C(c2ccc(CCN3CCCCC3)cc2)C23CC4CC(CC(C4)C2)C3)cc1 (configuration not stated)	µM	58.2
CN1CCN(CCCc2ccc(C(c3ccccc3)C34CC5CC(CC(C5)C3)C4)cc2)CC1 (configuration not stated)	µM	6.37
CN1CCN(CCc2ccc(C(c3ccccc3)C34CC5CC(CC(C5)C3)C4)cc2)CC1 (configuration not stated)	µM	6.36
CCN1CCN(CCc2ccc(C(c3ccccc3)C34CC5CC(CC(C5)C3)C4)cc2)CC1 (configuration not stated)	µM	7.66
